Readings of melting point for the listed compounds
EXPERIMENTAL_READOUT: melting point

COMPOUND: O=C1NC(=S)SC1=Cc1c(F)c(F)c(F)c(F)c1F
RESULT: 132 to 135 °C

COMPOUND: O=C(NCCCS(=O)c1ccncc1)c1cccs1 (stereo unspecified)
RESULT: 101 to 102 °C

COMPOUND: CC(=O)N1C(=O)N(COCc2ccccc2)C(=O)C12c1ccccc1NC(=O)N2C (stereo unspecified)
RESULT: 209 to 211 °C

COMPOUND: CCOCCn1c(NC2CCN(CCO)CC2)nc2cccnc21
RESULT: 94.3 °C

COMPOUND: COP(=O)(Cc1ccc(NC(=O)/C=C/c2cnn(C)c2-c2ccc(F)cc2)cc1)OC
RESULT: 209 to 210 °C

COMPOUND: O=C(Nc1ccc(C(F)(F)F)cc1)OC1CCCNC1 (stereo unspecified)
RESULT: 150 to 151 °C

COMPOUND: CN1CCC(P(=O)(O)O)(P(=O)(O)O)N=C1N
RESULT: 308 °C

COMPOUND: CC(=Cc1ccc2cc[nH]c2c1)C(=O)O
RESULT: 188 to 190 °C

COMPOUND: Cc1ccc(=O)n(C2c3cc(C#N)ccc3OC(C)(C)C2O)n1 (stereo unspecified)
RESULT: > 257 °C

COMPOUND: CCSc1ccc(-c2cnccn2)c2c1C(=O)CC(C)C2 (stereo unspecified)
RESULT: 152 to 154 °C

COMPOUND: CN(C)CC(O)c1cc(-c2ccccc2)on1 (stereo unspecified)
RESULT: 117 to 119 °C

====

Below: a set of entries, each annotated with reported melting point.

COMPOUND: COCCn1c(C)nc2cnc3ccccc3c21
melting point: 128 to 130 °C
--
COMPOUND: N#Cc1ccc(Oc2nc(Nc3cccc(C(=O)O)c3)nc(Oc3ccccc3)n2)cc1
melting point: 150 °C
--
COMPOUND: O=CN(O)C(CS(=O)(=O)c1ccc(-c2ccc(C(F)(F)F)cc2)cc1)c1ccccn1 (stereo not given)
melting point: 168 to 169 °C
--
COMPOUND: Cc1ccc(Nc2ncccc2O)cc1
melting point: 134 to 135 °C
--
COMPOUND: CNC(=S)NCCCCCC1CCSS1 (stereo not given)
melting point: 64 to 65 °C
--
COMPOUND: Cc1nc(-c2ccccc2)cc(-c2cccc([N+](=O)[O-])c2)c1NC(=O)NCCN(C)C
melting point: 159 to 161 °C
--
COMPOUND: Clc1c2ccccc2nc2occc12
melting point: 112 to 113 °C
--
COMPOUND: CC(=O)NC[C@H]1CN(c2ccc(N3CCC4(CC3)COCCO4)c(F)c2)C(=O)O1
melting point: 114 to 116 °C
--
COMPOUND: Fc1ccc(Cn2c(N3CCC(Nc4nc5ccccc5n4Cc4ccccc4)CC3)nc3ccccc32)cc1
melting point: 164 °C
--
COMPOUND: Cn1c(C(F)(F)F)cc(=O)n(-c2cc(OCC(C)(C)C)c(Cl)cc2F)c1=O
melting point: 122 to 124 °C
--
COMPOUND: Cc1cccc(-c2ccccc2NC(=N)N2CCCCC2)c1
melting point: 131 °C
--
COMPOUND: COc1cc(NCCCCCCO)c2nccc(C)c2c1
melting point: 97 to 99 °C
--
COMPOUND: CCc1ccccc1NC(=O)C(C#N)=C(C)N(C)C
melting point: 79 to 81.5 °C
--
COMPOUND: CC(C)(C)c1ccc(CCC(O)CC2CCCCC2)cc1NC(=O)CC1c2ccccc2Oc2ccccc21 (stereo not given)
melting point: 141 to 142 °C
--
COMPOUND: CC(C)(C)OC(=O)Nc1ccc(-c2ccccc2)cc1N
melting point: 137 °C
--
COMPOUND: CCOC(=O)C1=C2COCCN2C(C)=C(C(=O)OC)C1c1ccccc1Cl (stereo not given)
melting point: 141 to 143 °C
--
COMPOUND: CCCCn1ncc(/C=C(\Cc2cc3c(cc2OC)OCO3)C(=O)O)c1-c1cc(Cl)c(C)cc1OCc1ccccc1C(=O)O
melting point: 114 to 116 °C
--
COMPOUND: CSc1nc(C)ccc1NC(=O)CSc1nc2ccccc2[nH]1
melting point: 192 to 193 °C
--
COMPOUND: COc1ccc2c(c1)cc(C(=O)Nc1ccc3c(ccn3C)c1)n2Cc1cccc(C(F)(F)F)c1
melting point: 176 to 177 °C
--
COMPOUND: Cc1c(CN(O)Cc2ccccc2)c(C)c(CN(O)Cc2ccccc2)c(C)c1CN(O)Cc1ccccc1
melting point: 193 to 195 °C

====

MOLECULE: CCC(C)(C)C1=CC(=CC(=O)O)C=C(C(C)(C)CC)C1=O
melting point: 109 to 110 °C

MOLECULE: CN(C)CCNS(=O)(=O)c1cccc([N+](=O)[O-])c1C(=O)O
melting point: 193 °C

MOLECULE: COc1ccc2c(c1OC)C(=O)c1c-2c(Cl)nc2ccc(Cl)cc12
melting point: 149 to 151 °C

MOLECULE: CCCCCCCCCCCC(=O)Oc1ccc(-c2nc(-c3ccc(N(C)C)cc3)c(C)[nH]2)cc1OC
melting point: 110 to 112 °C

MOLECULE: COc1ccc(-n2c(CC(=O)O)c(C(=O)O)c3cc(Oc4ccc(OC(C)C)cc4)ccc32)cc1
melting point: 226 °C

MOLECULE: CC(C)(C)OC(=O)CCOCCc1cccc(-c2nc(=O)c3ccccc3s2)n1
melting point: 67.7 to 68.5 °C

MOLECULE: C=C(C)c1cc(-c2ccc(OCCNC(N)=O)cc2)n(-c2ccc(OC)nc2)n1
melting point: 94 to 98 °C

MOLECULE: Cc1cc(C)c2cccc(C(=O)Nc3nnn[nH]3)c2n1
melting point: 300 to 305 °C

MOLECULE: COc1cc(CN2C(=O)CCC2=O)cc(OC)c1-c1ccc(C[C@H](NC(=O)c2c(Cl)cccc2Cl)C(=O)O)cc1
melting point: 137 °C

====

melting point values for the compounds below.
EXPERIMENTAL_READOUT: melting point

COMPOUND: CCOC(=O)c1c(CCCn2cncn2)nc2cc(OC)c(OC)cc2c1-c1ccc(OC)c(OC)c1
EXPERIMENTAL_READOUT: melting point
RESULT: 141 to 142 °C
--
COMPOUND: Cc1cc(CCCCCCCOc2ccc(C3=N[C@@H](C(C)C)CO3)cc2)on1
EXPERIMENTAL_READOUT: melting point
RESULT: 122 to 123 °C
--
COMPOUND: OCCCSC(=S)Nc1ccccn1
EXPERIMENTAL_READOUT: melting point
RESULT: 93 °C
--
COMPOUND: CC(C)(C)c1ccc(OCCCCCCN2CCN(c3nccs3)CC2)cc1
EXPERIMENTAL_READOUT: melting point
RESULT: 30 to 32 °C
--
COMPOUND: N#Cc1cc(I)c(I)[nH]1
EXPERIMENTAL_READOUT: melting point
RESULT: 211 to 213 °C
--
COMPOUND: Cc1c(-c2ccccc2)oc2c(C(=O)NCCCN3CCN(c4ccccc4O)CC3)cccc2c1=O
EXPERIMENTAL_READOUT: melting point
RESULT: 118 to 120 °C
--
COMPOUND: Cc1cc(Oc2cccc(C(F)(F)F)c2)nn1C(=O)Nc1ccc(F)cc1F
EXPERIMENTAL_READOUT: melting point
RESULT: 84 to 85 °C
--
COMPOUND: CC[C@@]12C[C@H](O)[C@](O)(c3c(F)cccc3F)C[C@H]1CCc1cc(OCc3cccnc3C)ccc12
EXPERIMENTAL_READOUT: melting point
RESULT: 80 to 83 °C
--
COMPOUND: COC(=O)c1ccc2c3cccc4cccc(c5ccc(C(=O)N(C)c6ccc(C(C)(C)C)cc6)c1c25)c43
EXPERIMENTAL_READOUT: melting point
RESULT: 272 °C
--
COMPOUND: CCOC(=O)c1ccc2c(c1)C(=O)c1nc3ccccc3c(=O)n1-2
EXPERIMENTAL_READOUT: melting point
RESULT: 270 to 273 °C
--
COMPOUND: O=c1[nH]ncc(NCCN2CCN(c3cccc4c3OCCO4)CC2)c1Cl
EXPERIMENTAL_READOUT: melting point
RESULT: 217 to 219 °C
--
COMPOUND: CN1CCC(C2(O)c3ccccc3C=Cn3ccnc32)CC1 (stereo not given)
EXPERIMENTAL_READOUT: melting point
RESULT: 155 °C
--
COMPOUND: COc1ccc(S(=O)(=O)Nc2ccccc2/C=C/c2ccccn2)cc1
EXPERIMENTAL_READOUT: melting point
RESULT: 137 to 142 °C
--
COMPOUND: O=C1N(Cc2ncccc2F)c2ccccc2C12COc1cc3c(cc12)OCCO3 (stereo not given)
EXPERIMENTAL_READOUT: melting point
RESULT: 125 to 126 °C
--
COMPOUND: CC(C)(S)CN1CCN(CCOCCO)CC1
EXPERIMENTAL_READOUT: melting point
RESULT: 38 °C
--
COMPOUND: Cc1cccc(NC(=O)c2ccccc2C)c1
EXPERIMENTAL_READOUT: melting point
RESULT: 145 to 146 °C
--
COMPOUND: CC(=O)OC1C=CC2(C)C(=CCC3C2CCC2(C)C3CCC23OCCO3)C1 (stereo not given)
EXPERIMENTAL_READOUT: melting point
RESULT: 105 to 106 °C
--
COMPOUND: Cc1nc(C=O)cn1Cc1ccccc1
EXPERIMENTAL_READOUT: melting point
RESULT: 57 to 60 °C
--
COMPOUND: CN(C(=O)CN1C(=O)C(NC(=O)Nc2cccc(C#N)c2)N=C(CN2CCSCC2)c2ccccc21)c1ccccc1 (stereo not given)
EXPERIMENTAL_READOUT: melting point
RESULT: 165 °C
--
COMPOUND: CS(=O)(=O)c1ccc(-c2c(-c3ccccc3)nc3n2CCS3)cc1
EXPERIMENTAL_READOUT: melting point
RESULT: 177 to 179 °C
